system: Mycobacterium tuberculosis; assay: Antitubercular activity against Mycobacterium tuberculosis assessed as bacterial growth inhibition; format: functional
Outcome measure: MIC (µg/mL)
One number for each entry, in µg/mL.

Smiles code: CN(C)CCCN1c2ccccc2Sc2ccc(Cl)cc21
Outcome measure: MIC
Reported: 25

Smiles code: Clc1ccc2c(c1)N(CCC[P+](c1ccccc1)(c1ccccc1)c1ccccc1)c1ccccc1S2.[Cl-]
Outcome measure: MIC
Reported: 1

Smiles code: O=C1CCc2c(cccc2OC[C@]2(O)CCN(c3c(F)cc(Cl)cc3F)C[C@H]2O)N1
Outcome measure: MIC
Reported: 0.0005

Now for a further compound.
-- ask Look at this compound and give its reported MIC. "CN1CCN(CCCN2c3ccccc3Sc3ccc(C(F)(F)F)cc32)CC1"
-- reply 5

###

tested on: Mycobacterium tuberculosis; assay: Antitubercular activity against Mycobacterium tuberculosis H37Rv assessed as bacterial growth inhibition by REMA analysis; format: functional
Outcome measure: MIC (ng/mL)
Numbers only, in ng/mL.

Smiles code: O=c1nc(N2CCN(CCCCOc3ccccc3)CC2)sc2c([N+](=O)[O-])cc(C(F)(F)F)cc12
Test target: Mycobacterium tuberculosis
MIC [ng/mL]: 1.5

Provide reported MIC for each item, in the same order as listed.
1. O=c1nc(N2CCN(CCCCc3ccccc3)CC2)sc2c([N+](=O)[O-])cc(C(F)(F)F)cc12
2. CCCCCCCN1CCN(c2nc(=O)c3cc(C(F)(F)F)cc([N+](=O)[O-])c3s2)CC1

-- reply
1. 0.35
2. 0.19

-- ask State the recorded MIC for this entry: "O=c1nc(N2CCN(CCC3CCCCC3)CC2)sc2c([N+](=O)[O-])cc(C(F)(F)F)cc12"
-- reply 0.19

Reference source: ChEMBL document CHEMBL5260858
